Reference source: ChEMBL document CHEMBL1201862

# Test system: KM12
# Method Summary: NCI tumour cell line growth inhibition, 48 h
Active and inactive are the calls of the source. No stated cut-off is given here; in the data, active = GI50 up to about 1.1 µM and inactive = higher. Where a SMILES comes first, the peptide text is derived from it. [ ]: non-standard residue; d: D form. The star is where a group is joined. Bn2Val = CC(C)[C@@H](C(=O)*)N(Cc1ccccc1)Cc1ccccc1; NH(3,4-diMeO-benzyl) = COc1ccc(CN*)cc1OC; NMeV = CN[C@H](C(=O)O)C(C)C
Measured Attribute: GI50

Compound	Measured Attribute	Assay Value
CCN(CC)CCOC(=O)c1ccc(N)cc1.CCOC(=O)Nc1ccc(S(=O)(=O)OC)cc1.CCOC(=O)Nc1ccc(S(=O)(=O)OC)cc1.Nc1ccc(C(=O)O)c(O)c1	GI50	> 100 µM (inactive)
CC(C)OC(=O)NNc1c(Cl)cc(Cl)cc1Cl	GI50	71.6 µM (inactive)
COc1ccc(CNC(=O)[C@@H]2CCCN2C(=O)[C@@H]2CCCN2C(=O)[C@H](C(C)C)N(C)C(=O)[C@@H](NC(=O)[C@H](C(C)C)N(Cc2ccccc2)Cc2ccccc2)C(C)C)cc1OC (Bn2Val-V[NMeV]PP-{NH(3,4-diMeO-benzyl)})	GI50	21.4 µM (inactive)
Clc1ccc(OCc2nn3c(CCc4nnc5sc(COc6ccc(Cl)cc6)nn45)nnc3s2)cc1	GI50	18 µM (inactive)
CC1=C(C(=O)Nc2ccc([N+](=O)[O-])cc2)C(c2ccco2)C(C(=O)Nc2ccc([N+](=O)[O-])cc2)=C(C)N1	GI50	6.41 µM (inactive)
N#Cc1cc2c(cc1Cl)Sc1nccn1S2(=O)=O	GI50	5.79 µM (inactive)
CC(=O)NC(CCCN)C(=O)NCc1ccccc1 (stereo unspecified)	GI50	> 100 µM (inactive)
O=C(c1ccccn1)C1(N2CCCCC2)CCCCC1	GI50	> 100 µM (inactive)
CCOC(=O)c1c(-c2ccc(Cl)cc2)c(C#N)c(=S)n(C2OC(COC(C)=O)C(OC(C)=O)C(OC(C)=O)C2OC(C)=O)c1-c1ccccc1 (stereo unspecified)	GI50	> 100 µM (inactive)
COc1ccc(-c2cn3c(nc4ccccc43)c(C)n2)cc1	GI50	> 100 µM (inactive)
O=C(NC(=O)c1cc(-c2ccccc2)n[nH]1)c1ccccc1	GI50	> 100 µM (inactive)
COc1ccc(/C=C(\Cl)c2ccc(OC)cc2)cc1	GI50	> 100 µM (inactive)
CC1=CC(=O)CCC2(C)C1CC[C@@H]2OC=O (stereo partly specified)	GI50	> 100 µM (inactive)
COc1cc2c(cc1OC)C(=O)/C(=C/c1ccc(O)cc1)CC2	GI50	> 10 µM (inactive)
O=C1OCC2(CO1)CC1C=CC2C1 (stereo unspecified)	GI50	> 100 µM (inactive)
CC(=O)Nc1ccc(Cc2ccc3nc(O)cc(C)c3c2)cc1	GI50	> 100 µM (inactive)
CC(=O)C1C(=O)NC(=O)C1=O (stereo unspecified)	GI50	> 100 µM (inactive)
C=CCn1cnc2c(O)nc(Nc3ccccc3)nc21	GI50	> 100 µM (inactive)
CN(C)C1C(=O)C(C(N)=O)=C(O)C2(O)C(O)=C3C(=O)c4c(O)cccc4C(C)(O)C3CC12 (stereo unspecified)	GI50	> 100 µM (inactive)
O=C(C[N+]1(c2ccccc2)CCOCC1)c1ccccc1	GI50	> 100 µM (inactive)
Cc1cn(C2CC3C(COCN3O)O2)c(=O)[nH]c1=O (stereo unspecified)	GI50	> 100 µM (inactive)
